- SYSTEM: human IgG1 (human)
- ASSAY TEXT: SPR, same affinity measurement as in Example 4
MEASURED PARAMETER: Kd

[[record]]
binder = "GSGGSGPDCAYHRGELVWCTFH (not fully specified; the two Cys thiols crosslinked with 1,1-dichloroacetone; the crosslink reacted with O-2-Propynylhydroxylamine hydrochloride to introduce an alkyne group)"
measured = "334 nM"

